SUBJECT_OF_TEST: T1, human IL6R-Fc protein (human, biotin-labeled in the ELISAs (sites not given))
T1 construct: In house made; also called biotin-labeled human IL6R-Fc protein
PROTOCOL_DETAILS: capture ELISA: antibody captured on anti-IgG F(ab')2 coated plate, then biotin-labeled human IL6R-Fc, streptavidin-HRP
Reported EC50 values follow for various binders
Express the result in pM but write the number alone.

BINDER | REPORTED_METRIC | UNIT_NAME | RECORDED_NUMBER
Tocilizumab (antibody, human IgG1, kappa, V domains shown, In house made; also called benchmark; Actemra) VH: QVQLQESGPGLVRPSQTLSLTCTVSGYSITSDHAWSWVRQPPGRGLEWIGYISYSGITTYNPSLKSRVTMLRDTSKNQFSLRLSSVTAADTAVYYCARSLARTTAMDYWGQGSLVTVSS VL: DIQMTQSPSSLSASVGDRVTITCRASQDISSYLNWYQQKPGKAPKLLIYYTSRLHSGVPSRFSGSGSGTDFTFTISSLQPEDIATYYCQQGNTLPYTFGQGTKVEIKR | EC50 | pM | 191
Chimeric 1H7 (antibody, human IgG1, kappa, V domains shown, Mouse variable regions on human IgG1 / human kappa constant regions; also called chimeric antibody 1H7) VH: QVQLQQPGTELVKPGASVKLSCKASGYTFTNYWMHWVKQRPGQGLDWIGEINPTNGRTNYNENFKSKATLTVDKSSSTAYMQLSSLTSEDSAVYYCARLNTHYVFDSWGQGTTLTLSS VL: EIVLTQSPTTLAASPGEKITFTCSVSSSISSNYLHWYQQKPGFSPKLLISRTSTLASGVPARFSGSGSGTSYSLTIGTMEAEDVATYYCQQGSGIPFTFGSGTKLELKR | EC50 | pM | 78
mouse anti-IL6R monoclonal antibody 1B5 (antibody, V domains shown, Mouse hybridoma mAb) VH: QVQLQQPGAELVKPGASVKLSCKASGYTFTSYWMHWVKQRPGQGLEWIGEINPSNGRTNYNENFKSKATLTVDKSSSTAYMQLSSLTSEDSAVYYCARLNTHYVFDYWGQGTTLTVSS VL: EIVLTQSPTILAASPGEKITFTCSVSSSISSNYLHWYQQKPGFSPKLLIYRTSNLASGVPARFSGSGSGTSYSLTIGTMEAEDVATYYCQQGSGIPFTFGSGTKLEIK | EC50 | pM | 62.7
mouse anti-IL6R monoclonal antibody 1H7 (antibody, V domains shown, Mouse hybridoma mAb) VH: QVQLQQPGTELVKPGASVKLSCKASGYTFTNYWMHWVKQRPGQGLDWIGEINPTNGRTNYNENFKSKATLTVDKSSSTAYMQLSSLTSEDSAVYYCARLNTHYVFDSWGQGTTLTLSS VL: EIVLTQSPTTLAASPGEKITFTCSVSSSISSNYLHWYQQKPGFSPKLLISRTSTLASGVPARFSGSGSGTSYSLTIGTMEAEDVATYYCQQGSGIPFTFGSGTKLELK | EC50 | pM | 55.3

Okay, next one:
QUERY: Look up and report measured EC50 for this entry: Chimeric 1B5 (antibody, human IgG1, kappa, V domains shown, Mouse variable regions on human IgG1 / human kappa constant regions; also called chimeric antibody 1B5) VH: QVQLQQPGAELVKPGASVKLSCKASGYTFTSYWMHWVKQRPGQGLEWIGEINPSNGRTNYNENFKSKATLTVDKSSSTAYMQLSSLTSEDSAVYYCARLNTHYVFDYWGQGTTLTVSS VL: EIVLTQSPTILAASPGEKITFTCSVSSSISSNYLHWYQQKPGFSPKLLIYRTSNLASGVPARFSGSGSGTSYSLTIGTMEAEDVATYYCQQGSGIPFTFGSGTKLEIKR
RESULT: 101

Origin of the recorded values: patent US20230167182A1
